meta.source: a collection of fitness landscapes (doi:10.1016/j.celrep.2020.107928)

B1: Caulobacter ParB omega fusion; a variant is named by its letters at X, in order, B8GW30 (parent)
chain: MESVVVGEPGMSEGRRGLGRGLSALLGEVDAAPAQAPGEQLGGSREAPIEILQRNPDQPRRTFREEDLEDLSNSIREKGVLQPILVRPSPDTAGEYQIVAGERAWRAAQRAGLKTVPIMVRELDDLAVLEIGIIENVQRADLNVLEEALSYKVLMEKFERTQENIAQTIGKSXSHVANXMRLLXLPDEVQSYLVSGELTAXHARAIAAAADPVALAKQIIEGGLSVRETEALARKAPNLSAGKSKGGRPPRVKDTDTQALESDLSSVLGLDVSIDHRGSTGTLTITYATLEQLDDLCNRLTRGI

Variants of: B1
assay.remarks: one-hybrid fitness for binding NBS DNA (the Noc-binding site; scaled: cognate 1, non-cognate 0); higher = stronger binding
test.settings: with NBS DNA site
The full ranking holds about 81,000 sequences; the median of “one-hybrid fitness for binding NBS DNA” is about -0.1, and the highest 2% start at about 0.36. The sample holds the highest values, similar sequences and a random draw of the others, so the mix is not that of the screen.
Task for the reader: assign each of the following variants its reported one-hybrid fitness for binding NBS DNA.

(Q) Write down one-hybrid fitness for binding NBS DNA measured for item QRCH
(A) 0.52

(Q) Write down one-hybrid fitness for binding NBS DNA measured for item GVQT
(A) ≤ 0.2

(Q) Write down one-hybrid fitness for binding NBS DNA measured for item PPNW
(A) ≤ 0.2

(Q) Write down one-hybrid fitness for binding NBS DNA measured for item DPHT
(A) ≤ 0.2

(Q) Write down one-hybrid fitness for binding NBS DNA measured for item WTNW
(A) ≤ 0.2

(Q) Write down one-hybrid fitness for binding NBS DNA measured for item QPGN
(A) ≤ 0.2

(Q) Write down one-hybrid fitness for binding NBS DNA measured for item SRRL
(A) ≤ 0.2

(Q) Write down one-hybrid fitness for binding NBS DNA measured for item PKCF
(A) ≤ 0.2

(Q) Write down one-hybrid fitness for binding NBS DNA measured for item TPNM
(A) ≤ 0.2

(Q) Write down one-hybrid fitness for binding NBS DNA measured for item QRCG
(A) 0.343

(Q) Write down one-hybrid fitness for binding NBS DNA measured for item QCGH
(A) 0.282

(Q) Write down one-hybrid fitness for binding NBS DNA measured for item QCGN
(A) ≤ 0.2

(Q) Write down one-hybrid fitness for binding NBS DNA measured for item QQYC
(A) ≤ 0.2

(Q) Write down one-hybrid fitness for binding NBS DNA measured for item GSSG
(A) ≤ 0.2

(Q) Write down one-hybrid fitness for binding NBS DNA measured for item HVIC
(A) ≤ 0.2

(Q) Write down one-hybrid fitness for binding NBS DNA measured for item QCRC
(A) 0.512

(Q) Write down one-hybrid fitness for binding NBS DNA measured for item QTYC
(A) ≤ 0.2

(Q) Write down one-hybrid fitness for binding NBS DNA measured for item HTGM
(A) ≤ 0.2

(Q) Write down one-hybrid fitness for binding NBS DNA measured for item RFKM
(A) ≤ 0.2

(Q) Write down one-hybrid fitness for binding NBS DNA measured for item QSGS
(A) 0.358

(Q) Write down one-hybrid fitness for binding NBS DNA measured for item QQDY
(A) ≤ 0.2

(Q) Write down one-hybrid fitness for binding NBS DNA measured for item QQRC
(A) 0.455

(Q) Write down one-hybrid fitness for binding NBS DNA measured for item TANR
(A) ≤ 0.2

(Q) Write down one-hybrid fitness for binding NBS DNA measured for item QRCM
(A) 0.397

(Q) Write down one-hybrid fitness for binding NBS DNA measured for item QCGS
(A) 0.487

(Q) Write down one-hybrid fitness for binding NBS DNA measured for item TSAW
(A) ≤ 0.2

(Q) Write down one-hybrid fitness for binding NBS DNA measured for item QMYC
(A) ≤ 0.2

(Q) Write down one-hybrid fitness for binding NBS DNA measured for item QQVY
(A) ≤ 0.2

(Q) Write down one-hybrid fitness for binding NBS DNA measured for item QMRC
(A) 0.406

(Q) Write down one-hybrid fitness for binding NBS DNA measured for item TNMG
(A) ≤ 0.2

(Q) Write down one-hybrid fitness for binding NBS DNA measured for item QKYC
(A) ≤ 0.2

(Q) Write down one-hybrid fitness for binding NBS DNA measured for item QQKY
(A) 0.63
